Data origin: patent US8445501B2

test system: human PDE5 (Homo sapiens)
Construct: from tissue; host or cells: platelets from fresh blood of human donors (lysate, 10,000 g supernatant)
procedure summary: Inhibition of the type 5 phosphodiesterase (PDE5) activity, modified SPA test with platelet lysate
Format: biochemical
protocol conditions: PDE5 from human platelet lysate, 0.5 μM cGMP
observation type: IC50 (nM)
All answers are understood in nM, so give the number only.

molecule: O=CN1CC[C@H](NC(=O)c2c[nH]c3c(-c4c(OCC5CC5)ccc5c4OCO5)ncnc23)C1
observation type: IC50
unit symbol: nM
obs value: 1.82

molecule: COCC(=O)N1CC(NC(=O)c2c[nH]c3c(-c4c(OCC5CC5)ccc5c4OCO5)ncnc23)C1
observation type: IC50
unit symbol: nM
obs value: 0.891

molecule: CCOC(=O)N1CCC(NC(=O)c2c[nH]c3c(-c4ccccc4OCC4CC4)ncnc23)CC1
observation type: IC50
unit symbol: nM
obs value: 3.31

Alright, here's another molecule for you.
stdin: What value of measured IC50 is listed for Cc1ccc(OCC2CC2)c(-c2ncnc3c(C(=O)NC4CCN(C(=O)C5(O)CC5)CC4)c[nH]c23)c1 ?
stdout: 1.1

---

Recorded pIC50 values for a group of compounds are listed next.
test system: human PDE5 (Homo sapiens, UniProt O76074)
procedure summary: Inhibition of the type 5 phosphodiesterase (PDE5) activity, modified SPA test with platelet lysate
protocol conditions: PDE5 from human platelet lysate, 0.5 μM cGMP
Hey, just a heads up that pIC50 is the negative log base 10 of the concentration in molar.

compound: CC(=O)N1CC[C@H](NC(=O)c2c[nH]c3c(-c4c(OCC5CC5)ccc5c4OCO5)ncnc23)C1
pIC50: 8.61

compound: COc1ccc(OCC2CC2)c(-c2ncnc3c(C(=O)N[C@H]4CC[C@@H](NC(=O)C5(O)CC5)CC4)c[nH]c23)c1
pIC50: 9.16

compound: O=C(N[C@H]1CC[C@@H](NC(=O)C2(O)CC2)CC1)c1c[nH]c2c(-c3c(OCC4CC4)ccc4c3OCO4)ncnc12
pIC50: 9.64

compound: COCCOc1ccc2c(c1-c1ncnc3c(C(=O)N[C@H]4CC[C@H](NC(=O)C5CC5)CC4)c[nH]c13)OCO2
pIC50: 7.96

compound: O=C(N[C@H]1CC[C@H](C(=O)NC2CC2)CC1)c1c[nH]c2c(-c3c(OCC4CCC4)ccc4c3OCO4)ncnc12
pIC50: 9.78

stdin: What value of measured pIC50 is listed for COc1ccc(OCC2CC2)c(-c2ncnc3c(C(=O)NC4CCN(C(=O)C5CC5)CC4)c[nH]c23)c1 ?
stdout: 9.36

stdin: What value of measured pIC50 is listed for CCC(=O)N1CCC[C@@H](NC(=O)c2c[nH]c3c(-c4cc(F)c(OC)cc4OCC4CC4)ncnc23)C1 ?
stdout: 9.98

stdin: What value of measured pIC50 is listed for COc1cc(OCC2CC2)c(-c2ncnc3c(C(=O)NC4CCN(C(=O)[C@H](C)O)CC4)c[nH]c23)cc1F ?
stdout: 9.21

stdin: What value of measured pIC50 is listed for COc1cc(OCC2CC2)c(-c2ncnc3c(C(=O)NC4CCN(C(=O)C5(O)CC5)CC4)c[nH]c23)cc1F ?
stdout: 9.50

stdin: What value of measured pIC50 is listed for COCCOc1ccc2c(c1-c1ncnc3c(C(=O)N[C@H]4CC[C@H](NC(C)=O)CC4)c[nH]c13)OCO2 ?
stdout: 8.28

stdin: What value of measured pIC50 is listed for CC(=O)N1CCC(NC(=O)c2c[nH]c3c(-c4cc(C)ccc4OCC4CC4)ncnc23)CC1 ?
stdout: 8.74

stdin: What value of measured pIC50 is listed for COCC(=O)N1CC[C@@H](NC(=O)c2c[nH]c3c(-c4cc(F)c(OC)cc4OCC4CC4)ncnc23)C1 ?
stdout: 8.92

stdin: What value of measured pIC50 is listed for CCOC(=O)N1CCC(CNC(=O)c2c[nH]c3c(-c4c(OCC5CC5)ccc5c4OCO5)ncnc23)C1 (stereo not shown) ?
stdout: 9.46

stdin: What value of measured pIC50 is listed for O=C(NC1CCN(C(=O)C2CC2)CC1)c1c[nH]c2c(-c3c(OCC4CCC4)ccc4c3OCO4)ncnc12 ?
stdout: 9.90

stdin: What value of measured pIC50 is listed for COc1ccc(-c2ncnc3c(C(=O)N[C@H]4CC[C@@H](NC(=O)CO)CC4)c[nH]c23)c(OCC2CC2)c1 ?
stdout: 9.13

stdin: What value of measured pIC50 is listed for COCC(=O)N[C@H]1CC[C@H](NC(=O)c2c[nH]c3c(-c4ccccc4OCC4CC4)ncnc23)CC1 ?
stdout: 8.20

stdin: What value of measured pIC50 is listed for COc1ccc(OCC2CC2)c(-c2ncnc3c(C(=O)N[C@H]4CC[C@H](NC(=O)C5(O)CC5)CC4)c[nH]c23)c1 ?
stdout: 9.19
